target: UniProt:O60674
pKi: −log10 of the molar value.
measured_endpoint: pKi

input: Would you mind telling me what pKi value was observed for O=C(c1cc(-c2ncnc3[nH]cc(Cl)c23)c[nH]1)N(CCC(F)(F)F)CC1CCC1 [Compound 241] ?
output: > 7.00

input: Value lookup for pKi; key = CC(C(=O)NC1CCCC1)n1cc(-c2ncnc3[nH]ccc23)cn1 (centres unmarked) [Compound 75]
output: 6.30 to 7.00

input: Dear colleague, I am looking for the recorded pKi of the following molecule: N#CCCN(Cc1ccco1)C(=O)c1cc(-c2ncnc3[nH]ccc23)c[nH]1 [Compound 135]
output: > 7.00

input: Quick check: pKi of N#CCN(Cc1ccccc1)C(=O)c1cc(-c2ncnc3[nH]ccc23)c[nH]1 [Compound 111] ?
output: > 7.00

input: Query: pKi; subject: CC(CC(F)(F)F)C(=O)Nc1nc(-c2ncnc3[nH]ccc23)cs1 (centres unmarked) [Compound 102]
output: > 7.00

input: Quick one: pKi for O=C(CCC1CCCC1)Nc1nc(-c2ncnc3[nH]ccc23)cs1 [Compound 67] ?
output: > 7.00

input: Looking for the measured pKi of O=C(c1cc(-c2ncnc3[nH]ccc23)c[nH]1)N(CCC(F)(F)F)Cc1ccccc1 [Compound 108] , can you help?
output: > 7.00

input: Any idea what pKi was measured for O=C(c1cc(-c2ncnc3[nH]ccc23)c[nH]1)N1CCC(O)C1 (centres unmarked) [Compound 45] ?
output: 5.30 to 6.30

###

pKi: −log10 of the molar value.
Measured pKi on UniProt:P52333 follows.

input: I'm curious: which pKi was measured for CC(C)CC(=O)Nc1nc(-c2ncnc3[nH]ccc23)cs1 tested on UniProt:P52333?
output: > 7.00

input: Recorded pKi for CC(C(=O)NCC1CCCO1)n1cc(-c2ncnc3[nH]ccc23)cn1 (stereo not drawn) with UniProt:P52333, please?
output: 5.30 to 6.30

input: // fetch UniProt:P52333 pKi for C=CCN(CC=C)C(=O)c1ccc(-c2ncnc3[nH]ccc23)o1
output: > 7.00

###

Could you please report measured pKi for the items listed next?
biological target: JAK-2 enzyme (Homo sapiens)
Sequence (O60674 whole entry, species assumed): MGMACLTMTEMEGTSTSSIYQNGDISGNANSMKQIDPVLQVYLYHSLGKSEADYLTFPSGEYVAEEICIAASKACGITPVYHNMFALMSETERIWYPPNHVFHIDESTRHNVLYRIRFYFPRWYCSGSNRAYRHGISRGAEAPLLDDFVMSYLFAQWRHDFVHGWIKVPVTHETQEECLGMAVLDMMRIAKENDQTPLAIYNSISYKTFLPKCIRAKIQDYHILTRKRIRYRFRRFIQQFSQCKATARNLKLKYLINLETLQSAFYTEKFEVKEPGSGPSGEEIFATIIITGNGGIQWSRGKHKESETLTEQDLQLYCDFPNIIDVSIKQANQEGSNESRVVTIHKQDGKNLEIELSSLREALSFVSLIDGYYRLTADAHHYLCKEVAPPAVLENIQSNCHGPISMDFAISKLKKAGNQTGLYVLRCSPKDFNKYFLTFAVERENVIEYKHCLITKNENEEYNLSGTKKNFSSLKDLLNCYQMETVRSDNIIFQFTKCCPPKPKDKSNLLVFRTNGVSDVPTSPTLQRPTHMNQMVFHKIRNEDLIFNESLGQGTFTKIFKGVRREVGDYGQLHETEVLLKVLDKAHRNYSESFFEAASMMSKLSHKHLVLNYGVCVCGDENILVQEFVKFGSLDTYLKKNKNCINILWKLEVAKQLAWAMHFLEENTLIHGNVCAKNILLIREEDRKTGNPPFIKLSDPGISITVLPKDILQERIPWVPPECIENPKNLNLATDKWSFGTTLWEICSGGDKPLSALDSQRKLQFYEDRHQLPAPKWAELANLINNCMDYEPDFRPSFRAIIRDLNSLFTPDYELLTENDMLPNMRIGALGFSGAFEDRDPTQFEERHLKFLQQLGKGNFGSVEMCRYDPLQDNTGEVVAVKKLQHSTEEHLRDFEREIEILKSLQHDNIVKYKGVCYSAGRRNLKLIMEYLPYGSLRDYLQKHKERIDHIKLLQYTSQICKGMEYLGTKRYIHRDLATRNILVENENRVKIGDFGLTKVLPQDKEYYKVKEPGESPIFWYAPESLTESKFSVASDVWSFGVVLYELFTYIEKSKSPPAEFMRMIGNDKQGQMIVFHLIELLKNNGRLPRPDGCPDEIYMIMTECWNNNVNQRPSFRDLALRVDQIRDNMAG
pKi: −log10 of the molar value.

input: Can you share its pKi? I mean this compound: CN(C)C1CCN(C(=O)c2cc(-c3ncnc4[nH]ccc34)c[nH]2)C1 (stereo not shown)
output: 5.30 to 6.30

input: Please look up its pKi: C#CCN(C(=O)c1cc(-c2ncnc3[nH]ccc23)c[nH]1)C1CCCCC1
output: > 7.00

input: Request the reported pKi associated with N#CCCN(CC1CC1)C(=O)c1cc(-c2ncnc3[nH]ccc23)c[nH]1
output: > 7.00

input: Item under review: C=CCN(C(=O)c1ccc(-c2ncnc3[nH]ccc23)o1)[C@H](C)c1ccccc1 . Reported pKi?
output: > 7.00

input: Quick one: pKi for FC(F)(F)CN(Cc1coc(-c2ncnc3[nH]ccc23)c1)CC1CC1 ?
output: > 7.00

input: Which pKi is listed for CC(C(=O)N1CCCC1)n1cc(-c2ncnc3[nH]ccc23)cn1 (stereo not shown) ?
output: 6.30 to 7.00

input: Item under review: CCC(CO)NC(=O)C(C)n1cc(-c2ncnc3[nH]ccc23)cn1 (stereo not shown) . Reported pKi?
output: 6.30 to 7.00

input: Fill in: pKi of NC(=O)C1CCCN1C(=O)c1ccc(-c2ncnc3[nH]ccc23)o1 (stereo not shown) is ___
output: 5.30 to 6.30

input: What value of measured pKi is listed for CC(=O)NCCCC(=O)Nc1nc(-c2ncnc3[nH]ccc23)cs1 ?
output: > 7.00

input: Which value of pKi has been reported for C[C@@H](O)CNC(=O)c1cc(-c2ncnc3[nH]ccc23)c[nH]1 in the records?
output: > 7.00

input: Given CCN(Cc1ccccc1)C(=O)c1cc(-c2ncnc3[nH]ccc23)c[nH]1 , state its recorded pKi.
output: > 7.00

input: Suppose we examine the compound CCCn1cc(-c2ncnc3[nH]cc(Cl)c23)cn1 ; what pKi value has been reported?
output: > 7.00

input: Would you kindly share the measured pKi for CCC(CC)n1cc(-c2ncnc3[nH]ccc23)cn1 ?
output: > 7.00

input: Request the reported pKi associated with CCCN(CC(F)(F)F)C(=O)c1ccc(-c2ncnc3[nH]ccc23)o1
output: > 7.00

input: Requested read-out: pKi. Entry: CC(CO)NC(=O)C(C)n1cc(-c2ncnc3[nH]ccc23)cn1 (stereo not shown)
output: 5.30 to 6.30

input: I'd like to know its pKi. The compound in question is CC(C)CN(CCC#N)C(=O)c1cc(-c2ncnc3[nH]ccc23)c[nH]1
output: > 7.00

input: pKi lookup needed for CC(=O)NCCC(=O)Nc1nc(-c2ncnc3[nH]ccc23)cs1 , thanks.
output: > 7.00

input: Entry CCN(Cc1ccccc1)C(=O)c1cc(-c2ncnc3[nH]cc(Cl)c23)c[nH]1 has what pKi?
output: > 7.00

input: Quick one: pKi of O=C(NCC(F)(F)F)c1cc(-c2ncnc3[nH]ccc23)c[nH]1 ?
output: > 7.00

input: So what does the record say about pKi for CCCCC(C)n1cc(-c2ncnc3[nH]ccc23)cn1 (stereo not shown) ?
output: > 7.00

input: // lookup pKi for N#CCCN(CCC(F)(F)F)C(=O)c1cc(-c2ncnc3[nH]cc(Cl)c23)c[nH]1
output: > 7.00

input: Fill in the blank: the reported pKi of CCN(C(=O)CC(C)C)c1nc(-c2ncnc3[nH]ccc23)cs1 is ____.
output: > 7.00

###

Would you mind telling me the reported Ki of each entry?
Target: JAK3 (Homo sapiens, UniProt P52333)
Sequence (P52333 1-1124): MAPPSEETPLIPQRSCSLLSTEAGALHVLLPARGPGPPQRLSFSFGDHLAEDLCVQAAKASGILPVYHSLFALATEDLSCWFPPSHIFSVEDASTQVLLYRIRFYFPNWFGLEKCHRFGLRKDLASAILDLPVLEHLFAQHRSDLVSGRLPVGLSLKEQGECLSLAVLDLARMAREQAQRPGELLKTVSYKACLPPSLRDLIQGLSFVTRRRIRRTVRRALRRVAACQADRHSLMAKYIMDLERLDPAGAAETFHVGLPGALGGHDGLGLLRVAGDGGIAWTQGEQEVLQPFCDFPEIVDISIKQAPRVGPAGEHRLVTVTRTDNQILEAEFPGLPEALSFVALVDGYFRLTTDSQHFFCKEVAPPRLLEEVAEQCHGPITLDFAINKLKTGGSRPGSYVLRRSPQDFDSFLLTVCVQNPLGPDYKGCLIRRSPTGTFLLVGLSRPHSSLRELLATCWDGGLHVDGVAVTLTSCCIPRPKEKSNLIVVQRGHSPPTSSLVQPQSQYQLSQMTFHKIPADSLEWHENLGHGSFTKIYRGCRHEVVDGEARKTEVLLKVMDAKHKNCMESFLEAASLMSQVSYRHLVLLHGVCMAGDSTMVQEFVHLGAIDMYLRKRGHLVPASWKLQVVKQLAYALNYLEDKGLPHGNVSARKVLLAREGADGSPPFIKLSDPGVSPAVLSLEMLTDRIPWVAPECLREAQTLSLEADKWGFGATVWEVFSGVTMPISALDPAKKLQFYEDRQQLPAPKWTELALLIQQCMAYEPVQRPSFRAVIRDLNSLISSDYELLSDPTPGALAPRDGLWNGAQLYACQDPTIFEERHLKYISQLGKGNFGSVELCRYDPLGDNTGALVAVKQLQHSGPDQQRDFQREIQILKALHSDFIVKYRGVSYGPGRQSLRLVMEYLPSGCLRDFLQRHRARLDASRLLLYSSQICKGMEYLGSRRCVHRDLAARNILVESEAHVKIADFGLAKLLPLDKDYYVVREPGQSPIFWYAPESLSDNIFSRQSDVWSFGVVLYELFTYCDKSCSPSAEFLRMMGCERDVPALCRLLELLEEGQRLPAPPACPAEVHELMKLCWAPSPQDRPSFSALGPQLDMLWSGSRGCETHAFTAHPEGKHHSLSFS

input: Item under review: C=CCCC(=O)Nc1nc(-c2ncnc3[nH]ccc23)cs1 . Reported Ki?
output: < 100 nM

input: Find the recorded Ki belonging to O=C(NCC(F)(F)F)c1cc(-c2ncnc3[nH]ccc23)c[nH]1 and report it.
output: < 100 nM

input: What value of measured Ki is listed for NC(=O)C1CCCN1C(=O)c1cc(-c2ncnc3[nH]ccc23)c[nH]1 (stereo not drawn) ?
output: 100 to 500 nM

input: Look up Ki for this compound: CC(C)(C)OC(=O)N1CCC(C(=O)Nc2nc(-c3ncnc4[nH]ccc34)cs2)CC1
output: 100 to 500 nM

input: Return reported Ki; argument: CC#CCN(C(=O)c1cc(-c2ncnc3[nH]ccc23)c[nH]1)C1CCCCC1
output: 500 to 5000 nM

input: Please give the measured Ki for this compound: Nc1[nH]ncc1-c1ncnc2[nH]ccc12
output: 100 to 500 nM

input: // returns reported Ki for input Cc1c[nH]c2ncnc(-c3c[nH]c(C(=O)N(CCC(F)(F)F)CC4CC4)c3)c12
output: < 100 nM

input: State the recorded Ki for this entry: O=C(c1cc(-c2ncnc3[nH]ccc23)co1)N(CC1CCC1)CC(F)(F)F
output: 100 to 500 nM

input: Looking for the measured Ki of CCCC(C)n1cc(-c2ncnc3[nH]ccc23)cn1 (stereo not drawn) , can you help?
output: < 100 nM

input: Form field: reported Ki of CC(C)N(CCC(F)(F)F)C(=O)c1ccc(-c2ncnc3[nH]ccc23)o1
output: < 100 nM

input: Param item = CCCN(C)C(=O)c1cc(-c2ncnc3[nH]ccc23)cn1C ; retrieve measured Ki.
output: 500 to 5000 nM

input: # get_value(readout='Ki', item= CC(C)CN(C)C(=O)c1cc(-c2ncnc3[nH]ccc23)c[nH]1 )
output: 100 to 500 nM

input: Given CN(C)C1CCN(C(=O)c2cc(-c3ncnc4[nH]ccc34)c[nH]2)C1 (stereo not drawn) , state its recorded Ki.
output: 500 to 5000 nM

input: # input compound: FC(F)(F)CCCn1cc(-c2ncnc3[nH]ccc23)cn1 ; wanted: its Ki
output: 100 to 500 nM

input: Item under review: CC(C)NC(=O)c1cc(-c2ncnc3[nH]ccc23)c[nH]1 . Reported Ki?
output: 100 to 500 nM

input: Ki for CC(C(=O)NCc1cccn1C)n1cc(-c2ncnc3[nH]ccc23)cn1 (stereo not drawn) ?
output: 100 to 500 nM

input: What value of Ki has been reported for the following compound? N#CCN(Cc1ccccc1)C(=O)c1cc(-c2ncnc3[nH]ccc23)c[nH]1
output: < 100 nM

input: Record request: Ki value, item O=C(c1cc(-c2ncnc3[nH]ccc23)c[nH]1)N1CCCC(O)C1 (stereo not drawn)
output: 500 to 5000 nM

input: Which Ki is reported for this compound? CCC(C)CC(=O)Nc1nc(-c2ncnc3[nH]ccc23)cs1 (stereo not drawn)
output: < 100 nM

input: Reported Ki for CSCCNC(=O)C(C)n1cc(-c2ncnc3[nH]ccc23)cn1 (stereo not drawn) : what is it?
output: 100 to 500 nM

input: # Ki lookup, item CCCCN(CC)C(=O)c1cc(-c2ncnc3[nH]cc(Cl)c23)c[nH]1
output: < 100 nM
